Data origin, for the record: patent US20110039763A1

# System: microorganisms
# method: Morphology, biofilm and growth disrupting peptides (Table 5)
# Type: cell-based
# Set-up: key: A: Peptide aggregates; B: Less hyphal formation; Clumps; Diffuse clumps and small polyps; F: Diffuse growth; H: Thin; I: Growth inhibition; Microcolony formation; Rippled; Small polyps; Thick; W: Halo formation on top, microlonies on bottom
# run.conditions: MRSA
# Excerpt: In certain embodiments peptides that induce alterations in phenotype or other biological activities can also be used as antimicrobial effector moieties.
value.type: Organism, effect: MRSA

INSERT INTO assay_data (substance, test_value) VALUES
  ('PF-052: peptide having multiple activities (QELINEAVNLLVKSK; Peptide with targeting and/or antimicrobial activity)', 'MRSA (R)'),
  ('PF-145: peptide having multiple activities (chain 1 GIVLTGRAGLVSGACSMALGVGLG; chain 2 GIVLTGRAGLVSGACSMALGVGLG; Peptide with targeting and/or antimicrobial activity)', 'MRSA (M)'),
  ('PF-026: peptide having multiple activities (SIHFIN; Peptide with targeting and/or antimicrobial activity)', 'MRSA (M)'),
  ('PF-003: peptide having multiple activities (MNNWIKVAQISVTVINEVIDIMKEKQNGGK; Peptide with targeting and/or antimicrobial activity)', 'MRSA (R)'),
  ('PF-022: peptide having multiple activities (MINELKNKNSGIMNNYVVTKESKL; Peptide with targeting and/or antimicrobial activity)', 'MRSA (R)'),
  ('PF-178: peptide having multiple activities (EVYSSPTNNVAITVQNN; Peptide with targeting and/or antimicrobial activity)', 'MRSA (M)'),
  ('PF-067: peptide having multiple activities (DLIVKVHICFVVKTASGYCYLNKREAQAAI; Peptide with targeting and/or antimicrobial activity)', 'MRSA (M)');
